Source: ChEMBL document CHEMBL2163248

- Measurement target: Solute carrier organic anion transporter family member 1B1 (Homo sapiens)
- Sequence (Q9Y6L6 whole entry): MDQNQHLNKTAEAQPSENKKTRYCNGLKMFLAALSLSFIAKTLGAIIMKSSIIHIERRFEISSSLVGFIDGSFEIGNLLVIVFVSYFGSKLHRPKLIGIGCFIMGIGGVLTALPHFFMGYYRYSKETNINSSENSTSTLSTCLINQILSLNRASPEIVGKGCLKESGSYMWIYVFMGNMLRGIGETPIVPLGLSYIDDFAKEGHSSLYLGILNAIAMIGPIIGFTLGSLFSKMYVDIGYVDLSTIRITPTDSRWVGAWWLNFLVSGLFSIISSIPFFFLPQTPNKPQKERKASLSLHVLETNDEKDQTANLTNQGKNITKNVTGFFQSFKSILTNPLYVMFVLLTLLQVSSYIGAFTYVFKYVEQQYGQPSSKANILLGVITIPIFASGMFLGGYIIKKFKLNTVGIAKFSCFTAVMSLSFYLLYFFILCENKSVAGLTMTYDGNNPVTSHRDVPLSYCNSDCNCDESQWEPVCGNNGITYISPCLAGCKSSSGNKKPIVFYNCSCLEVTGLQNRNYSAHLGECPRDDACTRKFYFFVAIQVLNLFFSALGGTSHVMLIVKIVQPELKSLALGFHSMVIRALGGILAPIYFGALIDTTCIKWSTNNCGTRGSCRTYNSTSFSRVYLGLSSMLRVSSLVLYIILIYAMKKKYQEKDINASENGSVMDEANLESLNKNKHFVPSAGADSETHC
- Assay details: Inhibition of human liver OATP1B1 expressed in HEK293 Flp-In cells assessed as reduction in E17-betaG uptake at 20 uM by scintillation counting
- Run parameters: hek293, 20 µM
Measured parameter: INH (%)
Please give a number only; it is taken to be in %.

compound=CCc1oc2ccccc2c1C(=O)c1cc(Br)c(O)c(Br)c1 measurement_target="Solute carrier organic anion transporter family member 1B1 (Homo sapiens)" measured_parameter=INH meas_value=86.6
compound=C[C@H](CCC(=O)NCCS(=O)(=O)O)[C@H]1CC[C@H]2[C@@H]3CC[C@@H]4C[C@H](O)CC[C@]4(C)[C@H]3CC[C@]12C measurement_target="Solute carrier organic anion transporter family member 1B1 (Homo sapiens)" measured_parameter=INH meas_value=97.8
compound="CC(=O)CC(c1ccccc1)c1c(O)c2ccccc2oc1=O (stereo not drawn)" measurement_target="Solute carrier organic anion transporter family member 1B1 (Homo sapiens)" measured_parameter=INH meas_value=27.8
compound="NCCCC[C@H](N[C@@H](CCc1ccccc1)C(=O)O)C(=O)N1CCC[C@H]1C(=O)O [LISINOPRIL ANHYDROUS]" measurement_target="Solute carrier organic anion transporter family member 1B1 (Homo sapiens)" measured_parameter=INH meas_value=4.6
compound="CCN(CC)CCNC(=O)c1ccc(N)cc1 [PROCAINAMIDE]" measurement_target="Solute carrier organic anion transporter family member 1B1 (Homo sapiens)" measured_parameter=INH meas_value=21.6
compound=Cc1nnc2n1-c1ccc(Cl)cc1C(c1ccccc1Cl)=NC2 measurement_target="Solute carrier organic anion transporter family member 1B1 (Homo sapiens)" measured_parameter=INH meas_value=45.7
compound=CC1(C)[C@@H](O[C@H]2O[C@H](C(=O)O)[C@@H](O)[C@H](O)[C@H]2O[C@@H]2O[C@H](C(=O)O)[C@@H](O)[C@H](O)[C@H]2O)CC[C@]2(C)[C@H]3C(=O)C=C4[C@@H]5C[C@@](C)(C(=O)O)CC[C@]5(C)CC[C@@]4(C)[C@]3(C)CC[C@@H]12 measurement_target="Solute carrier organic anion transporter family member 1B1 (Homo sapiens)" measured_parameter=INH meas_value=65.8
compound=COc1ccc(CCN2CCC(Nc3nc4ccccc4n3Cc3ccc(F)cc3)CC2)cc1 measurement_target="Solute carrier organic anion transporter family member 1B1 (Homo sapiens)" measured_parameter=INH meas_value=22.3
compound=C[C@]12C=CC(=O)C=C1CC[C@@H]1[C@@H]2[C@@H](O)C[C@@]2(C)[C@H]1CC[C@]2(O)C(=O)CO measurement_target="Solute carrier organic anion transporter family member 1B1 (Homo sapiens)" measured_parameter=INH meas_value=2.3
compound=Nc1nnc(-c2cccc(Cl)c2Cl)c(N)n1 measurement_target="Solute carrier organic anion transporter family member 1B1 (Homo sapiens)" measured_parameter=INH meas_value=24.9

INH in this record for COc1cc2nc(N3CCN(C(=O)C4COc5ccccc5O4)CC3)nc(N)c2cc1OC (stereo not drawn) : 28.8

INH in this record for CC[C@H](C)C(=O)O[C@H]1C[C@@H](C)C=C2C=C[C@H](C)[C@H](CC[C@@H]3C[C@@H](O)CC(=O)O3)[C@H]21 : 66.5

INH in this record for CCCN(CCC)S(=O)(=O)c1ccc(C(=O)O)cc1 : 35.2

INH in this record for CC#C[C@]1(O)CC[C@H]2[C@@H]3CCC4=CC(=O)CCC4=C3[C@@H](c3ccc(N(C)C)cc3)C[C@@]21C : 81.2

INH in this record for COc1ccc2cc3[n+](cc2c1OC)CCc1cc2c(cc1-3)OCO2 : 32

INH in this record for CC/C(=C(/CC)c1ccc(O)cc1)c1ccc(O)cc1 : 62.1

INH in this record for Oc1ncnc2[nH]ncc12 : -35.6

INH in this record for C=C[C@H]1C[N@@]2CC[C@H]1C[C@@H]2[C@@H](O)c1ccnc2ccc(OC)cc12 : 43.3
